- Test system: Pseudomonas aeruginosa
- protocol_details: Antibacterial activity against Pseudomonas aeruginosa ATCC 27853 incubated for 24 hrs
- Type: functional
- details: ATCC 27853, 24 h
Reported MIC by item:

| molecular_string | MIC |
| --- | --- |
| NCCC[C@@H]1NC(=O)[C@H](C23CC4CC(CC(C4)C2)C3)NC(=O)[C@@H]2CCCN2C(=O)[C@@H](Cc2ccccc2)NC(=O)[C@H](C23CC4CC(CC(C4)C2)C3)NC(=O)[C@H](CCCN)NC(=O)[C@H](C23CC4CC(CC(C4)C2)C3)NC(=O)[C@@H]2CCCN2C(=O)[C@@H](Cc2ccccc2)NC(=O)[C@H](C23CC4CC(CC(C4)C2)C3)NC1=O | > 64 µg/mL |
| CC(C)[C@@H]1NC(=O)[C@H](CCCN)NC(=O)[C@@H]2CCCN2C(=O)[C@@H](Cc2ccccc2)NC(=O)[C@H](CCCN)NC(=O)[C@@H](C(C)C)NC(=O)[C@H](CCCN)NC(=O)[C@@H]2CCCN2C(=O)[C@@H](Cc2ccccc2)NC(=O)[C@H](CCCN)NC1=O | > 64 µg/mL |
| CC(C)C[C@@H]1NC(=O)[C@H](CCCN)NC(=O)[C@H](C(C)C)NC(=O)[C@@H]2CCCN2C(=O)[C@@H](Cc2ccccc2)NC(=O)[C@H](CC(C)C)NC(=O)[C@H](CCCN)NC(=O)[C@H](C(C)C)NC(=O)[C@H]2CC[C@H](OCc3ccccc3)[C@@H](CNC1=O)O2 | > 64 µg/mL |

Source: ChEMBL document CHEMBL4376803
